Target: human CD33 W179A (human, UniProt P20138 18-364)
Sequence (P20138 18-364 W179A limits assumed): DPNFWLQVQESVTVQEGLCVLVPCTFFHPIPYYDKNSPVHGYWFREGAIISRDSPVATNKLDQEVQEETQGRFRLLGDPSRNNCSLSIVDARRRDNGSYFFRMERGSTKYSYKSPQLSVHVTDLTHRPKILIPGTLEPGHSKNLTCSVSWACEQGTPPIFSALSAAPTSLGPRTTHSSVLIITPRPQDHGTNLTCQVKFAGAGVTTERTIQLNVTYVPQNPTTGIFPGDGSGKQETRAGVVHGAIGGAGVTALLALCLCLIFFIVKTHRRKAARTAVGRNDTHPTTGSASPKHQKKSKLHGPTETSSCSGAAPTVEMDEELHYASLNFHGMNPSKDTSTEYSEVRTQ
Measurement Description: alanine scan, flow cytometry, HEK293-T;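 also: antibody binding to each alanine-substituted CD33 mutant expressed transiently in HEK293-T, read as fluorescence minus background, mean of duplicates, relative to wild-type CD33 set as 100%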
Item-by-item account of Mean % WT Binding

{"columns": ["Binder", "Readout Units", "Mean % WT Binding"],
 "data": [
  ["Refmab #1 (antibody, V domains shown, In the alanine scan antibodies were used as IgG or Fab; also called hP67.6) VH: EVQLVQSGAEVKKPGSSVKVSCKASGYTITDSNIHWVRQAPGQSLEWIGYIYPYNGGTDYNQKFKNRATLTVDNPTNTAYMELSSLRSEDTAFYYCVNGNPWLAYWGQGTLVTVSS VL: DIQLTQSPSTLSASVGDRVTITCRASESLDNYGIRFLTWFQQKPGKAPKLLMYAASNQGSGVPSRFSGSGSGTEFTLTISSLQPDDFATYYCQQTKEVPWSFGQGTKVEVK", "%", 93.5],
  ["Refmab #2 (antibody, V domains shown, In the alanine scan antibodies were used as IgG or Fab) VH: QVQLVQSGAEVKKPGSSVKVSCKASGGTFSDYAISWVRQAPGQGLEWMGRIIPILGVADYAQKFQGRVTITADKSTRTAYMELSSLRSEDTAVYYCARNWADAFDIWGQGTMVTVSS VL: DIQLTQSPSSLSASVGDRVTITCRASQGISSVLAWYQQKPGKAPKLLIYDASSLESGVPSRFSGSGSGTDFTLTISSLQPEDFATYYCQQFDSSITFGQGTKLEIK", "%", 113],
  ["Refmab #4 (antibody, V domains shown, In the alanine scan antibodies were used as IgG or Fab) VH: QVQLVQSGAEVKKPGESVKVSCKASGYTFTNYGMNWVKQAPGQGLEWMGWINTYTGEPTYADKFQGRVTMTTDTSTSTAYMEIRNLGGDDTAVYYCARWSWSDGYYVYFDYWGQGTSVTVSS VL: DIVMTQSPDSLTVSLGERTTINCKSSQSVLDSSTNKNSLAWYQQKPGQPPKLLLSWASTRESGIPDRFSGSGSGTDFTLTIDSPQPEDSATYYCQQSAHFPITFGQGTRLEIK", "%", 83.1],
  ["Refmab #3 (antibody, V domains shown, In the alanine scan antibodies were used as IgG or Fab) VH: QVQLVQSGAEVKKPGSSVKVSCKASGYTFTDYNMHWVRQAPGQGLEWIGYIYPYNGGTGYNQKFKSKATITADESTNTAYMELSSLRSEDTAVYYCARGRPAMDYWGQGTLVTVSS VL: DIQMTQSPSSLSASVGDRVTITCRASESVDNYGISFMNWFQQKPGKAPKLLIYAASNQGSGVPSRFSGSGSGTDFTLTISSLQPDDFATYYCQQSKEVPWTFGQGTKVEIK", "%", 103]
]}
